Cited source for all entries: ChEMBL document CHEMBL2448811

# METHOD: physchem
Classify by measured pKa: Yes if it is equal to or exceeds 5, No if it is smaller.

Item Cc1ncc(CO)c(CN)c1O with pKa of 5 or above?
Yes

Entry CCCCCCCCCC(=O)OC(CC(=O)[O-])C[N+](C)(C)C (stereo unspecified) : is its pKa no less than 5?
No

Decide: pKa of CN(C)[C@@H]1C(=O)C(C(N)=O)=C(O)[C@@]2(O)C(O)=C3C(=O)c4c(O)cccc4[C@@](C)(O)C3[C@H](O)C12 (stereo partly specified) >= 5?
Yes

Dear colleague, could you confirm whether CCCCCCCC(=O)OC(CC(=O)[O-])C[N+](C)(C)C (stereo unspecified) has pKa at or above 5?
No

Form field: pKa at least 5? Entry: CCCC(=O)OC(CC(=O)[O-])C[N+](C)(C)C (stereo unspecified)
No
